Experiment: SK-BR-3 cell growth inhibitors, pilot screen, 24 h, human (AID 572);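 also: compound exposure lasted between 18 and 24 h rather than exactly 24 h; 100% = carrier-treated control wells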
Conditions: SK-BR-3 viability, CellTiter-Glo luminescence, at 10 µM, stronger effect = lower value
endpoint label: viability (%)

compound: COc1c2occc2c(OC)c2c(=O)cc(C)oc12
numeric result: 87
//
compound: N#CCc1ccc(NC(=O)Nc2cccc(Cl)c2)cc1
numeric result: 88
//
compound: CC(C)CC(=O)N1CCN(S(=O)(=O)c2ccc(F)cc2)CC1
numeric result: 86.5
//
compound: Cc1ccc(Cn2c(=N)c(C(=O)NCc3ccco3)cc3c(=O)n4ccccc4nc32)cc1
numeric result: 78
//
compound: O=C(CSc1n[nH]c(=O)[nH]c1=O)c1ccccc1
numeric result: 110
//
compound: CCCCOc1ccc(C(=O)CCN2CCCCC2)cc1
numeric result: 121
//
compound: Nc1nc(N2CCN(C/C=C/c3ccccc3)CC2)nc2ccccc12
numeric result: 80.5
//
compound: CCCCCn1c2nc3ccccc3nc2c2c(=O)n(CC(C)C)cnc21
numeric result: 116
//
compound: COc1cccc(NC(=O)N2CCCC2C(=O)Nc2ccc3c(c2)OCO3)c1 (stereo unspecified)
numeric result: 106
//
compound: COc1ccc2c(C)nc(Nc3nc(C)cc(C)n3)nc2c1
numeric result: 84
//
compound: CC(C)(C)n1ncc2c(=O)n(CC(=O)NCc3ccc(F)cc3)cnc21
numeric result: 95

* * *

Test: reversal of MRP1-mediated doxorubicin resistance, pilot screen, H69AR cells, doxorubicin co-treatment (AID 601)
Details: H69AR cells + 2 uM doxorubicin, CellTiter-Glo, 72 h; at 10 µM; stronger effect = higher value

compound: CCOC(=O)C1=C(C)NC(C)=C(C(=O)OC)C1c1cccc([N+](=O)[O-])c1 (stereo unspecified)
unit tag: %
differential viability (reversal): -14.7
//
compound: COc1ccc(Cn2nnnc2CN2CCOCC2)cc1
unit tag: %
differential viability (reversal): -5.83
//
compound: Cc1ccc(O)c(C(=O)c2cc(C#N)c(=O)n(CC3CCCO3)c2)c1 (stereo unspecified)
unit tag: %
differential viability (reversal): -2.82
//
compound: CC(C)N(C(=O)N1CCC(c2nc(-c3ccncc3)no2)CC1)C(C)C
unit tag: %
differential viability (reversal): -3.66
//
compound: CN1CCc2c(sc3c2c(=O)n(-c2ccccc2)c2nnc(SCc4ccccc4)n32)C1
unit tag: %
differential viability (reversal): 9.76
//
compound: COC(=O)c1ccccc1NC(=O)Cn1c(-c2nonc2N)nc2ccccc21
unit tag: %
differential viability (reversal): -10.4

* * *

Assay: HUVEC growth inhibition – cell-based, human, primary screen (AID 575);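 also: 100% = median of untreated cell wells with 0.1% DMSO on each plate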
Conditions: HUVEC proliferation, CellTiter-Glo luminescence, 72 h; at 10 µM; stronger effect = lower value
Here the recorded viability is given for each entry.
endpoint label: viability (%)

smiles record: CCOCCn1c(CN2CCC(Cc3ccccc3)CC2)nc2c1c(=O)n(C)c(=O)n2C
numeric result: 89.7
//
smiles record: Cc1nn(C)c(C)c1NC(=O)CSc1nc(Cc2ccccc2)nc2c1cnn2-c1ccccc1
numeric result: 88
//
smiles record: CCOC(=O)N(C)c1ccc(C(O)(C(F)(F)F)C(F)(F)F)cc1
numeric result: 91.7
//
smiles record: CC(C)CN1C(=O)c2ccc(C(=O)Nc3nccs3)cc2C1=O
numeric result: 90.8
//
smiles record: Cc1ccc2c(C(=O)CN3CCSCC3)c(C)[nH]c2c1
numeric result: 91.8

* * *

Assay: reversal of MRP1-mediated doxorubicin resistance, pilot screen, H69AR cells, doxorubicin co-treatment (AID 601)
Conditions: H69AR cells + 2 uM doxorubicin, CellTiter-Glo, 72 h; measured here: viability with 2 uM doxorubicin; at 10 µM; stronger effect = lower value
# viability listing for each entry below

compound: COC(=O)CSc1ncccc1-c1nc2ccccc2[nH]1
viability, %: 91.5

compound: CC(C)OC(=O)CSc1nnnn1-c1ccc2c(c1)OCCO2
viability, %: 82.2

compound: CSc1ncc(Cl)c(C(=O)Nc2ccc(S(=O)(=O)N3CCOCC3)cc2)n1
viability, %: 91.8

compound: O=C(COc1ccc(Cl)cc1)Nc1ncccn1
viability, %: 92.6

compound: CCOc1cc2[nH]c(=S)n(CC3CCCO3)c(=O)c2cc1OCC (stereo unspecified)
viability, %: 80.7

compound: CCOC(=O)CSC1=C(C#N)C(c2ccc(Cl)cc2)C(C(=O)OC)C(=O)N1 (stereo unspecified)
viability, %: 88.4

compound: Cn1c(C(=O)OC(C(=O)NC2CCCC2)c2cccnc2)cc2sccc21 (stereo unspecified)
viability, %: 92.6

compound: COc1ccc(C(=O)CN2C(=O)NC3(CCCc4ccccc43)C2=O)cc1OC (stereo unspecified)
viability, %: 77.7

compound: CCCCCCNS(=O)(=O)c1ccc(Cl)s1
viability, %: 87.8

compound: COc1cccc(CC(NC(C)=O)C(=O)NC2CCN(c3c4c(nc5ncnn35)CCC4)CC2)c1 (stereo unspecified)
viability, %: 87.9

compound: O=C(c1ccc(CNS(=O)(=O)c2cccc(C(F)(F)F)c2)cc1)N1CCOCC1
viability, %: 80.9

* * *

Experiment: growth suppression of yeast trafficking mutant, preliminary HTS, modulators of trafficking downstream of Golgi apparatus project, 1536-format plate, OD 615 nm (AID 637)
Conditions: yeast transport mutant growth, absorbance 615 nm, 18 h; stronger effect = higher value
Recorded measurements of inhibition, one per entry
endpoint label: inhibition (%)

compound: CC12CCC(C(=O)O)(c3nc(C#N)c(C#N)nc31)C2(C)C (stereo not given)
endpoint label: inhibition
numeric result: 6.07
--
compound: O=C(CSc1nc2ccccc2o1)N1CCN(c2ccc(Cl)cc2)CC1
endpoint label: inhibition
numeric result: 6.35
--
compound: Cc1ccc(C(O)c2nc3ccccc3n2C(C)C)cc1 (stereo not given)
endpoint label: inhibition
numeric result: -5.82
--
compound: Nc1c(C(=O)NCCN2CCOCC2)c2nc3ccccc3nc2n1-c1ccc2c(c1)OCO2
endpoint label: inhibition
numeric result: 6.19
--
compound: CCCC(=O)Nc1ccccc1-c1nnn(CC(=O)Nc2ccc(OC)cc2)n1
endpoint label: inhibition
numeric result: 5.4
--
compound: CCn1cc(C(=O)NC2CCc3ccccc32)c(=O)c2ccc(C)nc21 (stereo not given)
endpoint label: inhibition
numeric result: 5.41
--
compound: O=C(CSc1nc(N2CCCCC2)nc(N2CCCCC2)n1)Nc1nccs1
endpoint label: inhibition
numeric result: -7.21
--
compound: N#Cc1c(NC(=O)COC(=O)C2CC3C=CC2C3)oc(-c2ccccc2)c1-c1ccccc1 (stereo not given)
endpoint label: inhibition
numeric result: -0.36
--
compound: O=C(O)CCNC(=O)c1ccccc1
endpoint label: inhibition
numeric result: 1.17
--
compound: COc1cc2[nH]c3c(=O)n(CCN(C(C)C)C(C)C)cnc3c2cc1OC
endpoint label: inhibition
numeric result: 4.91
--
compound: Oc1ccc(C=Nc2cccc3ncccc23)c(O)c1
endpoint label: inhibition
numeric result: 0.81
--
compound: OC[C@H]1O[C@@H](n2cnc3c(Nc4ccccc4)ncnc32)[C@H](O)[C@@H]1O
endpoint label: inhibition
numeric result: 1.17
--
compound: CN(C)c1oc(-c2ccccc2Cl)nc1C#N
endpoint label: inhibition
numeric result: 3.97
--
compound: CC(=O)N1CCN(c2ccc(NC(=O)c3ccc(C(C)(C)C)cc3)cc2)CC1
endpoint label: inhibition
numeric result: -11.3
--
compound: Cc1ccc(O)c(-c2cc3ccccc3[nH]2)c1
endpoint label: inhibition
numeric result: 0.33
--
compound: O=C(Sc1nnnn1C1CCCCC1)c1cccs1
endpoint label: inhibition
numeric result: 3.81
--
compound: CCOC(=O)N1CCC(NC(=O)C2CCC(Cn3c(=O)[nH]c4ccccc4c3=O)CC2)CC1 (stereo not given)
endpoint label: inhibition
numeric result: 0.66
--
compound: CCOC(=O)c1sc(NC(=O)COC(=O)Cn2cnc3ccccc32)c(C(=O)OCC)c1C
endpoint label: inhibition
numeric result: -4.44
--
compound: Cn1c(=O)c2c(nc(CN3CCCCC3)n2CCCc2ccccc2)n(C)c1=O
endpoint label: inhibition
numeric result: 6.23
--
compound: O=C(CCCCCn1c(=S)[nH]c2cc3c(cc2c1=O)OCO3)N1CCN(Cc2ccccc2)CC1
endpoint label: inhibition
numeric result: -0.66

* * *

Assay: 384-well plate pilot, post-Golgi transport modulator project, inhibition of yeast transport mutant growth (AID 636)
Details: absorbance 615 nm, about 18 h, stronger effect = higher value
endpoint label: inhibition (%)

compound: CC(=O)N1CCc2cc(S(=O)(=O)CCC(=O)N3CCN(C(=O)c4ccco4)CC3)ccc21
unit tag: %
numeric result: -5.47
--
compound: O=C(COc1ccccc1)Nc1ccccc1N1CCN(c2ccccc2)CC1
unit tag: %
numeric result: -4.27
--
compound: CCCCOC(=O)c1cccc(NC(=O)CC)c1
unit tag: %
numeric result: 5.71
--
compound: CCCC(=O)Nc1ccc(OCC(=O)OC)cc1
unit tag: %
numeric result: -3.95
--
compound: N#CCCn1cnc2ccccc21
unit tag: %
numeric result: 0.52
--
compound: CCOC(=O)Cn1nnnc1CN(Cc1ccc(OC)cc1)Cc1cc2cc(C)ccc2[nH]c1=O
unit tag: %
numeric result: -1.33
--
compound: COc1cccc(C2CC(c3ccccc3)n3ncnc3N2)c1 (centres undefined)
unit tag: %
numeric result: 2.82
--
compound: C=C(C)COc1ccc(-c2nc(N)ncc2Oc2ccccc2OCC)c(O)c1
unit tag: %
numeric result: -0.66
--
compound: COc1ccc(OC)c(N2Cc3cc(C)c(C)cc3C2)c1
unit tag: %
numeric result: -6.97
